# test target: Fibroblast growth factor 2 (Homo sapiens)
# assay explanation: FGF2 binders on small-molecule microarrays, primary screen, biochemical, small-molecule microarray, 635/667 nm fluorescence (AID 1133)
# test conditions: small-molecule microarray binding, FGF2, fluorescence 635/667; higher = more signal
measure: composite z-score
One number for each entry.

O=C1O[C@H](c2ccccc2)[C@H](c2ccccc2)N2[C@H]1[C@@H](C(=O)N1CCCCCCC1)[C@]1(C(=O)Nc3ccc(C#CC4(O)CCCCCC4)cc31)[C@H]2c1ccccc1OCCO :: 0.121
C=C(/C(=C/C[C@@H](OC(=O)c1ccncc1)c1cccc(OCCO)c1)c1cnc2ccccc2c1)C(C)C :: 2.01
CC(CO)N1C(=O)[C@@H]2[C@H]3C(=O)OCC=C[C@H]3OC23C=CCN(c2ccc(Cl)cc2)C(=O)[C@@H]13 (stereo partly specified) :: -1.07
COc1ccc(NC(=O)O[C@H]2[C@@H]3OC(=O)[C@H](Cc4cccc(Br)c4)C/C=C/C[C@@H](Cc4cccc(Br)c4)C(=O)O[C@H]3[C@@H](OC)O[C@@H]2CO)cc1 :: 0.293
CCOC(=O)C1=CCC(c2ccccc2)N(S(=O)(=O)c2ccc([N+](=O)[O-])cc2)C1 (stereo unspecified) :: -0.169

Dear colleague, could you send me composite z-score for each of the items below? Thanks.
1. COC(=O)[C@@]1(Cc2ccc(F)cc2)[C@H]2c3cc(C(=O)N(C)C)n(Cc4c(CO)[nH]cc(C)c4=O)c3C[C@H]2CN1C(=O)c1ccccc1
2. O=C(NCCN1CCOCC1)[C@@H]1c2ccccc2C(=O)N(Cc2ccccc2)[C@H]1c1ccc(CO)cc1

1: -0.197; 2: -0.447

----------
# assay explanation: modulators of HCV replicon luciferase signal, primary screen, HCV replication inhibitor project, Huh7 cells, luciferase reporter (AID 1109);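 note: huh7 hepatoma cells harbouring a luciferase neomycin HCV replicon reporter; luciferase luminescence as measure of HCV replicon replication; test concentration not given here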
# test conditions: 48 h, higher = more signal
Would you mind labelling by z-score? At or over -2 is criterion met, under is criterion not met.

These recorded examples may help you get a feel for the data.
Nc1cc(Br)ccc1C(=O)O :: criterion met
CN1C(=O)C2C(C1=O)C1C=C(CCCO)C2C(C2CC2)N1Cc1cc2c(cc1Br)OCO2 (stereo unspecified) :: criterion met
Cc1cccc([C@H]2C[C@H]3C(Br)=C[C@@H]2C(=O)[C@]32CO2)c1 :: criterion not met

Dear colleague, could you confirm whether COc1ccc([Si](C)(C)[C@H]2[C@H](CC(=O)N3Cc4ccccc4C[C@H]3CO)O[C@@]3(C(=O)N(Cc4ccc(N5C(=O)c6cccc7cccc5c67)cc4)c4ccccc43)[C@@H]2C)cc1 has z-score at or above -2?
criterion not met

Can CC(C)C[C@@H]1NC(=O)CNC(=O)[C@@]23C(=O)N[C@@H](Cc4ccccc4)C2[C@H](C)[C@@]2(C)O[C@H]2C3/C=C/C/C=C\CNC1=O (stereo partly specified) be said to have z-score at or above -2?
criterion met

----------
# test target: Albumin (Bos taurus)
# assay explanation: bovine serum albumin binders on microarray, profiling panel, artefact control for SMM control protein annotation, biochemical, small-molecule microarray, Alexa647 label, 635/667 nm fluorescence (AID 1118);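 note: score merges 667 nm emission intensity and signal-to-noise per printed compound spot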
# test conditions: BSA-A647 binding, fluorescence 635 nm, higher = more signal
Please respond with reported composite z-score for every item in the list.
Numbers only.

Example results:
COc1cccc(/C=C(\C#N)C(=O)Nc2c(C)n(C)n(-c3ccccc3)c2=O)c1 :: 0.998
O=C(CS)NCCCCCCNC(=O)[C@@H]1C[C@@H]2C(=O)NCC(=O)N2[C@@H]1c1ccc(O)cc1 :: 0.166
COCC(=C=CC[C@@H](O)c1ccc(OCCO)cc1)CCO :: -0.201

I have 3 compounds here; please give me composite z-score for each one.
1. COc1ccc([Si](C)(C)[C@@H]2[C@@H](CC(=O)N3Cc4ccccc4C[C@H]3CO)O[C@]3(C(=O)N(Cc4ccc(N5CCC5=O)cc4)c4ccccc43)[C@H]2C)cc1
2. NCCCCCNC(=O)[C@@H]1C[C@@H]2C(=O)N3CCC[C@H]3C(=O)N2[C@@H]1c1ccc(O)cc1
3. CO[C@H]1O[C@H](CO)[C@@H](OC(=O)c2ccc(Br)cc2)[C@@H]2OC(=O)[C@H](Cc3ccccc3)C/C=C/C[C@@H](Cc3ccccc3)C(=O)O[C@@H]12

1: 0.502; 2: 0.539; 3: 0.776

Can you give me composite z-score for all of these, one by one?
1. CCOC(=O)C[C@H]1[C@H](OC(=O)c2ccc(-c3ccccc3)cc2)[C@@H](NC(=O)CC(C)C)c2cc(OCCCO)ccc2N1C(=O)c1ccccc1
2. C=CCC(OC(C)=O)[C@@H]1[C@@H](N(Cc2ccc(-c3cccc(C(F)(F)F)c3)o2)C(=O)c2cccc3ccccc23)c2cc(OCCCO)ccc2N1C(=O)Cc1ccc(OC)cc1 (some centres not stated)
3. COCCCNC(=O)[C@@]1(c2ccc([N+](=O)[O-])cc2)CC(=O)N(C(C)C)[C@@H]1c1ccc(CO)cc1
4. C=CCNC(=O)[C@@H]1[C@H]2C(=O)O[C@H](c3ccccc3)[C@H](c3ccccc3)N2[C@H](c2ccc(O)cc2)[C@@]12C(=O)N(C(=O)OCCOC)c1ccc(C#CCCO)cc12
5. Cc1ccc(S[C@]2(C(=O)NC(C)C)CC(=O)N(C(C)C)[C@@H]2c2ccc(CO)cc2I)cc1
6. C=CCC(OC(C)=O)[C@@H]1[C@@H](N(Cc2ccc(-c3ccccc3)cc2)C(=O)c2ccc(C)cc2)c2cc(OCCCO)ccc2N1C(=O)Cc1ccc2ccccc2c1 (some centres not stated)

[0.506, 0.311, 0.224, -0.906, 0.41, 0.233]

----------
Answer each item with its documented composite z-score.
# test target: Pro-neuregulin-1, membrane-bound isoform (Homo sapiens)
# assay explanation: NRG1 binders on small-molecule microarrays, primary screen, psychiatric disease protein project, biochemical, small-molecule microarray, fluorescence 635/667 (AID 1075);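 note: score combines 667 nm spot fluorescence with signal to noise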
# test conditions: NRG1 binding, 635 nm fluorescence, higher = more signal

Below: 5 molecules and their reported composite z-score.
CCOC(=O)C1=C[C@@H](C(C)(C)C)N(S(=O)(=O)c2ccc(C)cc2)[C@H]1c1cccc(Cl)c1 :: 0.831
NCCCCCNC(=O)[C@H]1C[C@H]2C(=O)N[C@@H](Cc3ccccc3)C(=O)N2[C@H]1c1ccc(O)cc1 :: 1.73
CCCCC(=C=CC[C@H](O)c1ccc(OCCO)cc1)C[C@H](O)COCc1ccccc1 :: 1.06
CC=CC(O)C1C=CC2C(=O)NC(=O)C2N1Nc1ccccn1 (stereo not drawn) :: 0.934
CN1C=C(C(=O)OCCS(C)(=O)=O)C(C(=O)OCCS(C)(=O)=O)=CC(c2ccc(CO)cc2)=CC1c1cccs1 (stereo not drawn) :: 1.47

For the 3 molecules below, give their composite z-score values.
1. Cc1ccccc1C(O)C1C=CC2C(=O)NC(=O)C2N1Nc1ccc(Cl)cc1Cl (stereo not drawn)
2. COCCCNC(=O)[C@@]1(c2ccc([N+](=O)[O-])cc2)CC(=O)N(C(C)C)[C@@H]1c1ccc(CO)cc1
3. C=C(/C(=C/C[C@H](OC(=O)c1ccncc1)c1cccc(OCCO)c1)c1cnc2ccccc2c1)C(C)C

1. 1.73
2. -0.714
3. 1.07

----------
Could you please report measured composite z-score for the items listed next?
# test target: Calmodulin-1 (Homo sapiens) (UniProt P0DP23)
# assay explanation: calcium-bound CALM1 binders on microarrays, profiling panel, artefact control for SMM control-protein annotation, biochemical, small-molecule microarray, Cy5-labelled CALM1, plus calcium (AID 1112);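 note: score merges spot fluorescence with signal to noise from triplicate slides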
# test conditions: Cy5-CALM1 binding fluorescence, higher = more signal
Give bare numbers.

Batch lookup, composite z-score per entry.
1. COC(=O)[C@@]1(Cc2ccc(OC)cc2)[C@H]2c3cc(C(=O)N4CCCC4)n(Cc4cc(C)n(C)n4)c3C[C@H]2CN1C(=O)c1ccccc1
2. COc1ccc(C#Cc2ccc3c(c2)[C@]2(C(=O)N3)[C@H](C(=O)Nc3nc4ccccc4s3)[C@H]3C(=O)O[C@H](c4ccccc4)[C@H](c4ccccc4)N3[C@@H]2c2ccccc2OCCO)cc1
3. C=C(C)[C@@H]1CC=C(C(O)C2C=CC3C(=O)N(c4ccccc4)C(=O)C3N2Nc2ccc(C#N)cc2)CC1 (some centres not stated)
4. COCCCNC(=O)[C@@H]1c2ccccc2C(=O)N(C2Cc3ccccc3C2)[C@H]1c1ccc(CO)cc1
5. [N-]=[N+]=NCc1ccccc1[C@@H]1OC(c2ccc(OCCCO)cc2)=N[C@]1(Cc1ccccc1N=[N+]=[N-])C(=O)N1CCCCC1
6. C=C[C@@H](C)[C@H](O)c1ccc(OCCO)cc1

1. 0.81
2. 0.436
3. 0.424
4. -0.518
5. 1.26
6. 0.521

composite z-score recorded for this compound, COC(=O)C(CC#Cc1ccc2c(c1)[C@]1(C(=O)N2)[C@H](C(=O)Nc2nc3ccccc3s2)[C@H]2C(=O)O[C@H](c3ccccc3)[C@H](c3ccccc3)N2[C@@H]1c1ccc(OCCO)cc1)C(=O)OC , is 0.326

Reference source: PubChem BioAssay
